Test system: U2OS
Assay: Antiproliferative activity against human U2OS cells after 48 hrs by MTT assay
Format: functional, cell-based
pIC50: −log10 of the molar value.
Result Type: pIC50

{"Structure As Smiles": "CN(C)CCCNc1cc2nc(/C=C3\\C(=O)Nc4cc(N(C)CCCN(C)C)c(F)cc43)[nH]c(=O)c2cc1F", "Observed Measurement": 5.08}

A = CN(C)CCCNc1cc2nc(/C=C3\C(=O)Nc4ccccc43)[nH]c(=O)c2cc1F
B = CCN(CC)CCCNc1cc2nc(/C=C3\C(=O)Nc4cc(N5CCN(C)CC5)c(F)cc43)[nH]c(=O)c2cc1F
C = CN(C)CCNc1cc2nc(/C=C3\C(=O)Nc4cc(N5CCN(C)CC5)ccc43)[nH]c(=O)c2cc1F
List items by pIC50 in falling order. Field: ranking. Enter the labels in the order requested. C, B, A
(C: 5.20, B: 4.99, A: 4.73)

---

Target: Quadruplex DNA
Experiment: Binding affinity to HTG21 telomeric G-quadruplex DNA (unknown origin) by SPR method
Result Type: Kd

Some solved cases for reference:
{"Structure As Smiles": "CN(C)CCNc1cc2nc(/C=C3\\C(=O)Nc4cc(N5CCN(C)CC5)c(F)cc43)[nH]c(=O)c2cc1F", "Measured Target": "Quadruplex DNA", "Observed Measurement": "6.2 µM"}
{"Structure As Smiles": "CCN(CC)CCCN1C(=O)/C(=C\\c2nc3cc(N4CCN(C)CC4)c(F)cc3c(=O)[nH]2)c2ccccc21", "Measured Target": "Quadruplex DNA", "Observed Measurement": "> 40 µM"}
{"Structure As Smiles": "CN(C)CCCNc1cc2nc(/C=C3/C(=O)Nc4ccccc43)n(CCCN(C)C)c(=O)c2cc1F", "Measured Target": "Quadruplex DNA", "Observed Measurement": "> 40 µM"}
{"Structure As Smiles": "O=C1Nc2cc(N3CCOCC3)c(F)cc2/C1=C/c1nc2cc(NCCCN3CCCC3)c(F)cc2c(=O)[nH]1", "Measured Target": "Quadruplex DNA", "Observed Measurement": "> 40 µM"}

// fetch Kd for O=C1Nc2cc(N3CCOCC3)c(F)cc2/C1=C/c1nc2cc(NCCCN3CCOCC3)c(F)cc2c(=O)[nH]1 ; system: Quadruplex DNA > 40 µM

Provide Quadruplex DNA Kd reading for CN1CCN(CCCNc2cc3nc(/C=C4\C(=O)Nc5cc(N6CCN(C)CC6)c(F)cc54)[nH]c(=O)c3cc2F)CC1 . 9.6 µM

Specify the recorded Kd for CN1CCN(c2cc3c(cc2F)/C(=C/c2nc4cc(N5CCN(C)CC5)c(F)cc4c(=O)[nH]2)C(=O)N3)CC1 , system: Quadruplex DNA. > 40 µM

# return Kd for CN(C)CCCNc1ccc2c(=O)[nH]c(/C=C3\C(=O)Nc4ccccc43)nc2c1 , test system: Quadruplex DNA > 40 µM

Supply Kd measured with Quadruplex DNA for CCN(CC)CCCNc1cc2nc(/C=C3\C(=O)Nc4cc(N5CCN(C)CC5)c(F)cc43)[nH]c(=O)c2cc1F . 4.9 µM

For Quadruplex DNA, give Kd of the listed compound: CN(C)CCNc1cc2nc(/C=C3\C(=O)Nc4cc(N5CCN(C)CC5)ccc43)[nH]c(=O)c2cc1F > 40 µM
